Experiment: NCI Yeast Anticancer Drug Screen. Data for the mec2-1 strain (AID 157)
Settings: S. cerevisiae mec2-1 strain, at 50.0 µM (retest, dose inferred, filed as 5.0), stronger effect = higher value
The panel holds about 79,000 compounds, 15% with a hit somewhere; the sample as a whole holds those more often.
Reported Property: growth inhibition (%)
Respond with the bare value in %.

Worked examples follow.
CC(C)(C)S(=O)(=O)O.[Ag]
99
O=C1/C(=C/c2ccccc2)CCC/C1=C\c1ccccc1
77
CCOC(=O)COc1cc(-c2ccccc2F)nc2cc3c(cc12)OCO3
6
Cc1cc(O)c(O)c(C(C)(C)CC(C)(C)C)c1
83
Oc1ccc(Nc2ccc3ccccc3c2)cc1
98

Exercise: Endpoint output: growth inhibition of O=C(Cc1ccccc1)C(F)(F)F . Value?
Solution: 15

Exercise: Endpoint output: growth inhibition of O=C(/C=C/c1ccccc1)c1ccccc1O . Value?
Solution: 49

Exercise: Endpoint output: growth inhibition of CC1C2c3ccccc3C(c3ccccc32)C1CO (centres undefined) . Value?
Solution: 61

Exercise: Endpoint output: growth inhibition of CN(C)CCSC1=Nc2ccc(Cl)cc2C(c2ccccc2Cl)N(C)C1 (centres undefined) . Value?
Solution: 47

Exercise: Endpoint output: growth inhibition of COc1cc(NC(=O)C2=C(C)NC(C)=C(C(=O)Nc3cc(OC)c(Cl)cc3OC)C2c2cccc([N+](=O)[O-])c2)c(OC)cc1Cl . Value?
Solution: 97

Exercise: Endpoint output: growth inhibition of O=[N+]([O-])c1ccc2nc3ccccc3[n+]([O-])c2c1 . Value?
Solution: 99

Exercise: Endpoint output: growth inhibition of Nc1nc2ncc(CNc3ccc(C(=O)NC(CCC(=O)NC(CCC(=O)NC(CCC(=O)NC(CCC(=O)NC(CCC(=O)O)C(=O)O)C(=O)O)C(=O)O)C(=O)O)C(=O)O)cc3)nc2c(=O)[nH]1 (centres undefined) . Value?
Solution: -6

Exercise: Endpoint output: growth inhibition of Cc1ccc2cccc(OC(=O)Nc3cccc(C(F)(F)F)c3)c2n1 . Value?
Solution: 98

Exercise: Endpoint output: growth inhibition of O=C1C=CC(=O)N1c1cc(Cl)c(Cl)cc1Cl . Value?
Solution: 98
